Documented EC50 hC3 cleavage across a set of binders
- Measured target: plasma purified human complement protein C3 (human) (UniProt P01024)
- Sequence (P01024 23-667, chain 1 of 2): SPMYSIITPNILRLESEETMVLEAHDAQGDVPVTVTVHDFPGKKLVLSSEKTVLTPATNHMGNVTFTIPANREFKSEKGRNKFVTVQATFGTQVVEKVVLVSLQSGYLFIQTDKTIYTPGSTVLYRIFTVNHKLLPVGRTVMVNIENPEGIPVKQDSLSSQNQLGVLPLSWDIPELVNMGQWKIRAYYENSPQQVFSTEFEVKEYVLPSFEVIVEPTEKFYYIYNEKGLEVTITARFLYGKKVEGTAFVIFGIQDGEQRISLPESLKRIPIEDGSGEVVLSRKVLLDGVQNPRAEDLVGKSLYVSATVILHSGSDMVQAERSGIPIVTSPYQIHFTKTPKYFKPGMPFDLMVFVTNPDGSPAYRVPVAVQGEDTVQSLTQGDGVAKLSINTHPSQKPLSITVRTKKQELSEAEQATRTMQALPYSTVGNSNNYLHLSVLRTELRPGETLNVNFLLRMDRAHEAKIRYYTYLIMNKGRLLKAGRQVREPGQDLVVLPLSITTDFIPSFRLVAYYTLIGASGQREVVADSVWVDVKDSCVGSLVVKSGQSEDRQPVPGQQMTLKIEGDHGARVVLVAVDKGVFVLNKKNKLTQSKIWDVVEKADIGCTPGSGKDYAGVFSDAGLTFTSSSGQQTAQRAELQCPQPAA
- Sequence (P01024 672-1663, chain 2 of 2): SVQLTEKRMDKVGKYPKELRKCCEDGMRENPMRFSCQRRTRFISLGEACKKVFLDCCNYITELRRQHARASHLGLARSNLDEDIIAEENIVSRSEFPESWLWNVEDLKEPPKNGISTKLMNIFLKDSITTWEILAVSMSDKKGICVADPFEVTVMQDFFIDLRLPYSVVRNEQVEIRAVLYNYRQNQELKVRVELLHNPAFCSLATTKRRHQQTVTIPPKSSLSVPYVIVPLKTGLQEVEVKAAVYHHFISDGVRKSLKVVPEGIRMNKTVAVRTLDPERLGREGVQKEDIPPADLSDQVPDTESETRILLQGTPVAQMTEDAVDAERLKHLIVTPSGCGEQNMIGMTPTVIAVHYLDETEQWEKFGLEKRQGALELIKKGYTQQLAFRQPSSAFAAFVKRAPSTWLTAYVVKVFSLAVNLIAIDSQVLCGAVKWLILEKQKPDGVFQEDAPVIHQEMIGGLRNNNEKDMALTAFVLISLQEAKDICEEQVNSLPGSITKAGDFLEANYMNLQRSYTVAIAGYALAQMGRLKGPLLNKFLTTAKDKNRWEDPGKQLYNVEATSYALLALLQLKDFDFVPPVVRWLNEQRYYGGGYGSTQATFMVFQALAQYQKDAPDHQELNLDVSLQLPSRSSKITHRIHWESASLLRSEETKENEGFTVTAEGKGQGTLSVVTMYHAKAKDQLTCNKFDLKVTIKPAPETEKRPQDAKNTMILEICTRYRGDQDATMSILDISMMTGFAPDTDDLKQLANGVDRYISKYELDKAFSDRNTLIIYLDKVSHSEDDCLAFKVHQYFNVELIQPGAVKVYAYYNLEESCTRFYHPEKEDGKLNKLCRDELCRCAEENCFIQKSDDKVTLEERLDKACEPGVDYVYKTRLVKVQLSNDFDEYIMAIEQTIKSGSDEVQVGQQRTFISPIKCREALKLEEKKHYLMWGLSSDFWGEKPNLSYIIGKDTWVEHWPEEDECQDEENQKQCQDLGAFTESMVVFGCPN
- Test name: cell-based or functional assay
Please state the figure in µM; there is no need to write the unit.

## Input EC50 hC3 cleavage lookup needed for MTSP-1 protease domain I41S/F97G/ins97aA/T98L/C122S/Q192A (enzyme) VVGGTDADEGEWPWQVSLHALGQGHSCGASLISPNWLVSAAHCYIDDRGFRYSDPTQWTAFLGLHDQSQRSAPGVQERRLKRIISHPFFNDGALFDYDIALLELEKPAEYSSMVRPISLPDASHVFPAGKAIWVTGWGHTQYGGTGALILQKGEIRVINQTTCENLLPQQITPRMMCVGFLSGGVDSCAGDSGGPLSSVEADGRIFQAGVVSWGDGCAQRNKPGVYTRLPLFRDWIKENTGV , thanks.
## Output 0.00675

## Input For MTSP-1 protease domain I41G/F97A/F99L/C122S/G151N/Q175M/Q192S (enzyme) VVGGTDADEGEWPWQVSLHALGQGHGCGASLISPNWLVSAAHCYIDDRGFRYSDPTQWTAFLGLHDQSQRSAPGVQERRLKRIISHPFFNDATLDYDIALLELEKPAEYSSMVRPISLPDASHVFPAGKAIWVTGWGHTQYGGTNALILQKGEIRVINQTTCENLLPQMITPRMMCVGFLSGGVDSCSGDSGGPLSSVEADGRIFQAGVVSWGDGCAQRNKPGVYTRLPLFRDWIKENTGV then?
## Output 0.0731

## Input For MTSP-1 protease domain Q38H/I41S/D96G/ins97aG/C122S/G151N/Q192A (enzyme) VVGGTDADEGEWPWQVSLHALGHGHSCGASLISPNWLVSAAHCYIDDRGFRYSDPTQWTAFLGLHDQSQRSAPGVQERRLKRIISHPFFNGFGTFDYDIALLELEKPAEYSSMVRPISLPDASHVFPAGKAIWVTGWGHTQYGGTNALILQKGEIRVINQTTCENLLPQQITPRMMCVGFLSGGVDSCAGDSGGPLSSVEADGRIFQAGVVSWGDGCAQRNKPGVYTRLPLFRDWIKENTGV then?
## Output 0.0346
